- test.system: human FLAP (Homo sapiens (Human), UniProt P20292)
- Sequence (P20292 whole entry): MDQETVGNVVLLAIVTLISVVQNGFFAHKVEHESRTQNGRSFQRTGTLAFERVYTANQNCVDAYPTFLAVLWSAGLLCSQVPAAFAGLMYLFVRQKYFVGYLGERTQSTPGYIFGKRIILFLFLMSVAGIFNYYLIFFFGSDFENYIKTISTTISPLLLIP
- procedure.summary: FLAP binding assay (HTRF format)
- condition.notes: wild type FLAP, HTRF format
pKi: −log10 of the molar value.

# smiles.data, test.system, pKi
rows = [
    ("Nc1ncc(-c2ccc(-c3ccccc3C(=O)N3CCS(=O)(=O)CC3)cc2F)cn1", "human FLAP (Homo sapiens (Human), UniProt P20292)", "< 5.00"),
    ("COc1ccccc1-c1ccc(-c2cnc(N)nc2)nc1", "human FLAP (Homo sapiens (Human), UniProt P20292)", "< 5.00"),
    ("CCc1ccccc1-c1ccc(-c2cnc(N)cn2)c(F)c1", "human FLAP (Homo sapiens (Human), UniProt P20292)", 6.45),
    ("Nc1cnc(-c2ccc(-c3ccccc3S(N)(=O)=O)cc2O)cn1", "human FLAP (Homo sapiens (Human), UniProt P20292)", "< 5.00"),
]
